Values were extracted from the EternaBench riboswitch data.

Test system: MS2 coat protein
Test: apparent Kd, MS2 coat protein; higher = weaker binding; RNA-MaP array; FMN 200 µM where present
Conditions: designed as: OFF switch for flavin mononucleotide; no ligand
Classify by apparent Kd. Ranges: class 1 = under 20 nM, class 2 = from 20 nM up to 80 nM, class 3 = 80 nM and over

Below are worked cases with known answers.
>>> print(df.to_string())
                              sequence_text  label_class
0  CUAACACAUGAGGAUCACCCAUGUUAGGAUAUUAGUACUAUUUACCACAUAAUGGCACUGAGAAGGAGCGGGUA      class 2
1  AAGAUGUCAGGAUAUGCUGCUCGUCACUUGCGUGAUGAGUAGCAGAAGGGACAUGAGGAUCACCCAUGUAAAGA      class 3
2  GGUCGGAGCAGAGGAUAUUACAUGAGGAUCACCCAUGUAUGAACCAAUAGCUGGAAACAGCAAUGUAAGAAGGCUGCUCCGACA      class 1
3  UAUGUUUUUGUGAGGAUAUACUUUGUUUGGUCGUAGUAGAAGGCACAUGAGGAUCACCCAUGUAGAUUUUUGGU      class 2

Query string: Each sequence maps to one class by apparent Kd. Which class for UCAAUAUAUCAGGAUAUGACUUUUUGUGUUAAGUCAGAAGGGAUAACAUGAGGAUCACCCAUGUGAUAUAGUGA ?
Result string: class 2

Query string: Sort into band: UCUUGACAUGAGGAUCACCCAUGUCAGGAUAUAGUAGGACAAAUAAAUAAAAGUUCUACUAGAAGGGAUAUGGG
Result string: class 2

Query string: Hi there! Could you help me figure out the category for UUUUAACAUGAGGAUCACCCAUGUGAGGAUAUCGAAAUUUAUAUUAAUAUUAAUUUAUCGAGAAGGCACAUUUU please?
Result string: class 3

* * *

Here, each record is paired with measured apparent Kd data.
System: MS2 coat protein
Experiment: apparent Kd, MS2 coat protein; higher = weaker binding; RNA-MaP array; FMN 200 µM where present
Conditions: ligand present: flavin mononucleotide; designed as: OFF switch for flavin mononucleotide
Report only the number, with the unit nM understood.

>>> print(df.to_string())
                              sequence_text   observable  test_result
0  GGAAAACAUGAGGAUCACCCAUGUGAGGAUAUCGAUGUCCAAAGGAAAGUGCGGGACUCGAGAAGGCACUUGGA  apparent Kd           39
1  CAGACGUCAGGAUAUCUGAUGUCUAACUUCGGUUAGACAUCAGAGAAGGGACAUGAGGAUCACCCAUGUCUGAA  apparent Kd         23.6

Query string: // fetch apparent Kd given entry GCCGUUAAAGGAUAUACAUGAGGAUCACCCAUGUCGGUAUAAAAUUUACCGCCUCCCUGUAGAAGGUUAAGGCA
Result string: 19.8

* * *

System: MS2 coat protein
Test: apparent Kd, MS2 coat protein; higher = weaker binding; RNA-MaP array; FMN 200 µM where present
Conditions: ligand present: flavin mononucleotide; designed as: OFF switch for flavin mononucleotide
Observable: apparent Kd (nM)
Give your result in nM as a bare value.

Some solved entries appear below for comparison.
                              sequence_text       test_system   observable  test_result
0  CAGCCCUGAGGAUAUCCAUCCUUGUACAUGAGGAUCACCCAUGUUUUCCUCUGGGCUUUCGGAGAAGGCAGGUAUC  MS2 coat protein  apparent Kd         68.5
1  AGUCAGAGCAGAGGAUAUAUACAUGAGGAUCACCCAUGUGACUGACUAUGCUAGAAAUAGUAUGUAUAGAAGGCUGCUCUGACA  MS2 coat protein  apparent Kd          466
2  UUCUUUCCUCAUGUACAUGAGGAACAUGAGGAUCACCCAUGUAGAAGGAUUUCCCUUAAAUUAAAAUAGGAUAUACAUAUAUUU  MS2 coat protein  apparent Kd         24.7
3  GAAUAAUUGAUCCAUUUUUAAAACAUGAGGAUCACCCAUGUGCAGGAUAUCGUGAGAGUUAAAUACGAGAAGGGCAAGAACUGU  MS2 coat protein  apparent Kd          173

Now, please, on to the next sequence.
Query string: Give the reported value of apparent Kd for this record: ACCGUGUCAGGAUAUCCUGCUGUGCGGAAUCUGUAUUCACGGGAGAAGGGACAUGAGGAUCACCCAUGUUUGAG
Result string: 18.6
